Molecular target: human α2β4-nAChR (Homo sapiens, UniProt P30926+Q15822)
Sequence (Q15822 27-529): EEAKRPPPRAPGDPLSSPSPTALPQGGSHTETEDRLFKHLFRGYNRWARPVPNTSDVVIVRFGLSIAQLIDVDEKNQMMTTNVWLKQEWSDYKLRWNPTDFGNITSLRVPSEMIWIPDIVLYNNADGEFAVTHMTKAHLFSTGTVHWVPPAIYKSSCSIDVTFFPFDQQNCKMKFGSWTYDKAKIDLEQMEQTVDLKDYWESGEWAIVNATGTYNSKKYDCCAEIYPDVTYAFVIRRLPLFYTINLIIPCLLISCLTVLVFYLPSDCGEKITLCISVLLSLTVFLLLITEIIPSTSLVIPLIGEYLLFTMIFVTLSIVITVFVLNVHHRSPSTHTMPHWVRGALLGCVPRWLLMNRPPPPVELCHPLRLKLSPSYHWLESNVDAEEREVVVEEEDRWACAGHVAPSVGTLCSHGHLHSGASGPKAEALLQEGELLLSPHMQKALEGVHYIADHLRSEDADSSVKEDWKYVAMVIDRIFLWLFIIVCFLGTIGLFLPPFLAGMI
Sequence (P30926 22-498): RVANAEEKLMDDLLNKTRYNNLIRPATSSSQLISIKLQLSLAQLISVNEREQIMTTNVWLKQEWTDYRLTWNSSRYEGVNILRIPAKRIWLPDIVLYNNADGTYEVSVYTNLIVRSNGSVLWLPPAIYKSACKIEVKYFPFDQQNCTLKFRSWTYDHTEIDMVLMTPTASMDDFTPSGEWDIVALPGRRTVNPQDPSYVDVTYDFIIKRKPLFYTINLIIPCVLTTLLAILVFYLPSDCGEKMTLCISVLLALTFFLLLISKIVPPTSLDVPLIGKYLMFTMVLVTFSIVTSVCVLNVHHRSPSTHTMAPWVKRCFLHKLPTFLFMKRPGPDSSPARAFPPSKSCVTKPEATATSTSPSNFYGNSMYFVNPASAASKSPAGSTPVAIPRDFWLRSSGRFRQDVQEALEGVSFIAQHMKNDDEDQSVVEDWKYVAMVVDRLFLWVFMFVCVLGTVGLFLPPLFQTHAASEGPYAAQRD
Assay type: cell-based
Details: Potency EC50 (95% CI), α2β4(1:1) cRNA ratio; −70 mV
MEASUREMENT LABEL: EC50 (µM)
The reply should contain only the number, in µM.

Recorded EC50 for CN1CCC[C@H]1c1cccnc1 [Nicotine, L-nicotine] with human α2β4-nAChR (Homo sapiens, UniProt P30926+Q15822), please?
4.7

###

Biological target: human α2(T22I)β4-nAChR (Homo sapiens, UniProt P30926+Q15822, T22I)
Type: cell-based
Settings: Potency EC50 (95% CI), α2(T22I)β4(1:10) cRNA ratio, putative HS; −70 mV
MEASUREMENT LABEL: pEC50
Expect pEC50 as a plain number equal to -log10 of the molar concentration.

# lookup: pEC50 of CN1CCC[C@H]1c1cccnc1
5.59

###

Molecular target: human α2β4-nAChR (Homo sapiens, UniProt P30926+Q15822)
Assay type: cell-based
Settings: Potency EC50 (95% CI), α2β4(10:1) cRNA ratio, putative LS; −70 mV
MEASUREMENT LABEL: EC50 (µM)
Form entry: value (µM) — number only.

State its EC50 on human α2β4-nAChR (Homo sapiens, UniProt P30926+Q15822): CN1CCC[C@H]1c1cccnc1
11

###

Molecular target: human α2β4-nAChR (Homo sapiens, UniProt P30926+Q15822)
Format: cell-based
Details: Potency EC50 (95% CI), α2β4(1:10) cRNA ratio, putative HS; −70 mV
MEASUREMENT LABEL: pEC50
To interpret pEC50, take it as minus log10 of a concentration measured in moles per litre.

Entry CN1CCC[C@H]1c1cccnc1 has what pEC50?
5.42

###

Molecular target: human α2β2-nAChR (Homo sapiens, UniProt P17787+Q15822)
Sequence (P17787 26-502, one chain of several): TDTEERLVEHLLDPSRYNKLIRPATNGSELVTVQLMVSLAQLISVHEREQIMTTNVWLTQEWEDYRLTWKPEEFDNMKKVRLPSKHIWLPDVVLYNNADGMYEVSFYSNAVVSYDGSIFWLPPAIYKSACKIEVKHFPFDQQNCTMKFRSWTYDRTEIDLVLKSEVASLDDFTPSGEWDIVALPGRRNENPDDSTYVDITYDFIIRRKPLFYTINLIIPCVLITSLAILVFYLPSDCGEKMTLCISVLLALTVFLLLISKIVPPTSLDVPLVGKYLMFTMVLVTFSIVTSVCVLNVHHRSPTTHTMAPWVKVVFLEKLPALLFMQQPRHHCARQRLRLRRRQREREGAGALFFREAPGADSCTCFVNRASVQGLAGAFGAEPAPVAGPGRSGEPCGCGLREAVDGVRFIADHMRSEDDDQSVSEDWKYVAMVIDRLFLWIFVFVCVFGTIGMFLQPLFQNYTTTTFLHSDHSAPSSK
Type: cell-based
Settings: Potency EC50 (95% CI), α2β2(1:1) cRNA ratio; −70 mV
MEASUREMENT LABEL: EC50
Write the numeric value and append its unit.

// lookup EC50 for CN1CCC[C@H]1c1cccnc1 [Nicotine, L-nicotine]
1.8 µM

// data source = paper PMC3984001
